The reported numbers originate from patent US4447610A.

- Assay Info: Acute toxicity
- Assay Conditions: mouse, in vivo, ip; mice, intraperitoneal; read-out: Toxicity LD 50
Measured Metric: LD50 (mg/kg)
Give bare numbers, in mg/kg.

1) CCN1CCN(C2=Cc3ccccc3C(=CC#N)c3ccccc32)CC1 (mixture of isomers) : 287

Give the measured LD50 for CN1CCN(C2=Cc3ccccc3C(=CC#N)c3ccccc32)CC1 324

###

- Tested on: tryptamine-induced clonic front paw movements
- Assay Info: Antitryptamine action: inhibition of tryptamine-induced front paw movements
- Assay type: in vivo, rats
- Assay Conditions: relative activity, clozapine = 1.00
Antitryptamine action R.A. (relative activity) vs 1: at or above is Condition met, below is Condition not met.

Would you please look over these solved cases?
1) CN1CCN(C2=Nc3ccccc3Cc3ccccc32)CC1 [Perlapine, reference compound] : Condition met
2) CCN1CCN(C2=Cc3ccccc3C(=CC#N)c3ccccc32)CC1 (mixture of isomers) [Example 5] : Condition not met

I'd appreciate it if you could say whether CN1CCN(C2=Cc3ccccc3/C(=C/C#N)c3ccccc32)CC1 [Example 1a] has Antitryptamine action R.A. (relative activity) at least equal to 1. Condition not met

###

- Test system: orientation hypermotility
- Assay Info: Sedative action: decrease in orientation hypermotility of mice
- Type: in vivo, female NMRI mice
- Assay Conditions: Mus musculus, 0.5 h; mice, oral, 30 min after administration, measured for 30 min; read-out: Sedative action ED 50%
Measured Metric: ED50 (mg/kg)
Answers are plain numbers, in mg/kg.

Worked set:
1. N#CC=C1c2ccccc2C=C(N2CCN(CCO)CC2)c2ccccc21 (mixture of isomers) : 0.97
2. CN1CCN(C2=Cc3cc(Cl)ccc3C(=CC#N)c3ccccc32)CC1 : 2
3. C[N+]1([O-])CCN(C2=Cc3ccccc3C(=CC#N)c3ccccc32)CC1 (mixture of isomers) : 1.4

Please give ED50 for each item listed below.
1. CN1CCN(C2=Cc3cc(Cl)ccc3/C(=C/C#N)c3ccccc32)CC1
2. CCN1CCN(C2=Cc3ccccc3/C(=C/C#N)c3ccccc32)CC1

1. 0.44
2. 1

Please give ED50 for each item listed below.
1. CCN1CCN(C2=Cc3ccccc3C(=CC#N)c3ccccc32)CC1 (mixture of isomers)
2. CN1CCN(C2=Cc3ccccc3/C(=C/C#N)c3ccccc32)CC1

[1.38, 0.8]

Give the measured ED50 for CN1CCN(C2=Cc3ccccc3C(=CC#N)c3ccccc32)CC1 0.96

###

I'd appreciate it if you could supply LD50 values for the items below.
- Assay Info: Acute toxicity
- Assay Conditions: mouse, in vivo, ip; mice, intraperitoneal; read-out: Toxicity LD 50

Worked set:
1. CCN1CCN(C2=Cc3ccccc3/C(=C/C#N)c3ccccc32)CC1 [Example 5a] : > 100 mg/kg
2. C[N+]1([O-])CCN(C2=Cc3ccccc3C(=CC#N)c3ccccc32)CC1 (mixture of isomers) [Example 12] : > 100 mg/kg

Shift focus to the following entry.
Give the measured LD50 for N#CC=C1c2ccccc2C=C(N2CCN(CCO)CC2)c2ccccc21 (mixture of isomers) [Example 7] > 100 mg/kg

###

- Tested on: tryptamine-induced clonic front paw movements
- Assay Info: Antitryptamine action: inhibition of tryptamine-induced front paw movements
- Type: in vivo, rats
- Assay Conditions: relative activity, clozapine = 1.00
Measured Metric: Antitryptamine action R.A. (relative activity)
Numbers only.

1) CCN1CCN(C2=Cc3ccccc3/C(=C/C#N)c3ccccc32)CC1 [Example 5a] : 0.45
2) CN1CCN(C2=Cc3cc(Cl)ccc3/C(=C/C#N)c3ccccc32)CC1 [Example 4a] : 7.14
3) C[N+]1([O-])CCN(C2=Cc3ccccc3C(=CC#N)c3ccccc32)CC1 (mixture of isomers) [Example 12] : 0.40

Shift focus to the following entry.
Give the measured Antitryptamine action R.A. (relative activity) for CN1CCN(C2=Nc3cc(Cl)ccc3Nc3ccccc32)CC1 [Clozapine, reference compound] 1.00
